Origin of values: patent US7186829B1

measurement.name: melting point

Examples with answers:
molecule	value
CC1OCCN/C1=C(/C#N)C(=S)c1cc(C(F)(F)F)cc(C(F)(F)F)c1 (stereo not shown) [I-1-a-2]	195 °C
CC1OCCNC1=C(C#N)C(=O)c1cc(C(F)(F)F)cc(C(F)(F)F)c1 (stereo not shown) [I-1-a-14]	142 °C
N#CC(C(=O)c1cc(C(F)(F)F)cc(C(F)(F)F)c1)=C1CSCCN1 [I-1-a-10]	182 °C
CC1OCCN/C1=C(/C#N)C(=O)c1cc(-c2ccc(Cl)cc2)cc(C(F)(F)F)c1 (stereo not shown) [I-1-a-37]	119 °C
N#C/C(C(=O)c1cc(C(F)(F)F)cc(C(F)(F)F)c1)=C1\CS(=O)(=O)CCN1 [I-1-a-15]	224 to 226 °C
N#CC(C(=O)c1ccc(Cl)cc1)=C1COCCN1 [I-1-a-5]	192 °C

// switching to the query molecule
Query string: What value of melting point has been recorded for this entry: CCC1COC(C)/C(=C(\C#N)C(=O)c2ccc(Cl)cc2)N1 (stereo not shown) [I-1-a-1]
Result string: 136 °C
